The values you see were collected from patent USRE47150.

- SYSTEM UNDER TEST: T1, mouse tissue factor pathway inhibitor (TFPI) (mouse, UniProt O54819 29-289, limits assumed)
- T1 construct: bought; also called mTFPI; murine TFPI
- T1 sequence (looked up): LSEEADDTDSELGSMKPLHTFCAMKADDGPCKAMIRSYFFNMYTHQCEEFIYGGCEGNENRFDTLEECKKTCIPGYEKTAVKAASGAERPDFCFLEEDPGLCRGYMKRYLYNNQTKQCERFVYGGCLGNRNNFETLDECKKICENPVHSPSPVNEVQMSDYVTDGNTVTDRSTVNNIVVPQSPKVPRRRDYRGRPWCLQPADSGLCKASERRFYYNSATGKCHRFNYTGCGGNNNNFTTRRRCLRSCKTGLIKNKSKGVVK
- PROTOCOL DETAILS: SPR, TFPI immobilized
Documented kon across a set of binders
Write down the numeric answer in M⁻¹ s⁻¹ and omit the unit.

>>> measurement("2A8 HC_S31V (Fab, V domains shown, also called 2A8-3) VH: QVQLVESGGGLVQPGGSLRLSCAASGFTFRVYGMSWVRQAPGKGLEWVSSIRGSSSSTYYADSVKGRFTISRDNSKNTLYLQMNSLRAEDTAVYYCARKYRYWFDYWGQGTLVTVSS VL: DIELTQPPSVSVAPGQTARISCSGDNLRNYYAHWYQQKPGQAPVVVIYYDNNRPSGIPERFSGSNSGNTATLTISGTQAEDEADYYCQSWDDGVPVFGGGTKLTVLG")
"3.39e+06"

I am curious: what kon value has been reported for 2A8 HC_K99L (Fab, V domains shown, also called 2A8-9) VH: QVQLVESGGGLVQPGGSLRLSCAASGFTFRSYGMSWVRQAPGKGLEWVSSIRGSSSSTYYADSVKGRFTISRDNSKNTLYLQMNSLRAEDTAVYYCARLYRYWFDYWGQGTLVTVSS VL: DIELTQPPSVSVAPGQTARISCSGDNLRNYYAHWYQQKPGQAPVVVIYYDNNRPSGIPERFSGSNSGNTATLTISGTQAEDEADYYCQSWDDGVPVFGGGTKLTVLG ? 1.56e+06

I am curious: what kon value has been reported for 2A8 HC_G33P (Fab, V domains shown, also called 2A8-1) VH: QVQLVESGGGLVQPGGSLRLSCAASGFTFRSYPMSWVRQAPGKGLEWVSSIRGSSSSTYYADSVKGRFTISRDNSKNTLYLQMNSLRAEDTAVYYCARKYRYWFDYWGQGTLVTVSS VL: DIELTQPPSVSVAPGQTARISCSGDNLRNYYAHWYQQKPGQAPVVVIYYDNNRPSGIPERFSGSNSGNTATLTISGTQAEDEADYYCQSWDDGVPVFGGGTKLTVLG ? 912000
